system: HaCaT; assay: Cytotoxicity against human HaCaT cells assessed as reduction in cell viability at 50 uM measured after 2 hrs by MTT assay; assay type: toxicity, cell-based
Bridge positions count the residues as written; N and C are the ends. Square brackets hold non-standard residues; d marks the D form. Peptide text beside a SMILES is read from it.
measured_endpoint: Activity

input: Fill in: Activity of CC[C@H](C)[C@H](NC(=O)[C@H](CCCNC(=N)N)NC(=O)[C@@H]1CCCCNC(=O)CC[C@H](NC(=O)[C@H](Cc2ccccc2)NC(=O)[C@H](Cc2c[nH]c3ccccc23)NC(=O)[C@@H]2CCCN2C(=O)[C@@H](NC(=O)[C@@H](N)Cc2ccccc2)C(C)C)C(=O)N[C@@H](CCCCN)C(=O)N[C@@H](Cc2ccccc2)C(=O)N[C@H](CC(C)C)C(=O)N1)C(=O)N[C@@H](CC(C)C)C(N)=O (H-FVPWFEKF[dL]KRIL-NH2; lactam 6-10) is ___
output: < 40%

input: Quick one: Activity of `CC[C@H](C)[C@H](NC(=O)[C@H](CCCNC(=N)N)NC(=O)[C@@H]1CCCCn2cc(nn2)C[C@H](NC(=O)[C@H](Cc2ccccc2)NC(=O)[C@H](Cc2c[nH]c3ccccc23)NC(=O)[C@@H]2CCCN2C(=O)[C@@H](NC(=O)[C@@H](N)Cc2ccccc2)C(C)C)C(=O)N[C@@H](CCCCN)C(=O)N[C@@H](Cc2ccccc2)C(=O)N[C@@H](CC(C)C)C(=O)N1)C(=O)N[C@@H](CC(C)C)C(N)=O` ?
output: < 40%

---

test system: Pseudomonas aeruginosa; test: Antimicrobial activity against Pseudomonas aeruginosa ATCC 27853 assessed as reduction in bacterial growth incubated for 16 to 18 hrs by microdilution susceptibility test; type: functional; conditions: time 16-18 hrs
Bridge positions count the residues as written; N and C are the ends. Square brackets hold non-standard residues; d marks the D form. Peptide text beside a SMILES is read from it.
measured_endpoint: MIC

input: // lookup MIC | system=Pseudomonas aeruginosa | key= CC(C)C[C@H](NC(=O)[C@@H]1CCC(=O)NCCCC[C@H](NC(=O)[C@H](Cc2c[nH]c3ccccc23)NC(=O)[C@@H]2CCCN2C(=O)[C@@H](NC(=O)[C@@H](N)Cc2ccccc2)C(C)C)C(=O)N[C@@H](CO)C(=O)N[C@@H](CCCCN)C(=O)N[C@@H](Cc2ccccc2)C(=O)N[C@H](CC(C)C)C(=O)NCC(=O)N[C@@H](CCCNC(=N)N)C(=O)N1)C(N)=O (H-FVPWKSKF[dL]GREL-NH2; lactam 5-12)
output: > 100 µM

---

system: Escherichia coli; assay: Antimicrobial activity against Escherichia coli ATCC 25922 assessed as reduction in bacterial growth incubated for 16 to 18 hrs by microdilution susceptibility test; assay type: functional; conditions: time 16-18 hrs
Bridge positions count the residues as written; N and C are the ends. Square brackets hold non-standard residues; d marks the D form. Triazole bridges read from a SMILES are 1,4-linked. Peptide text beside a SMILES is read from it. Lys(N3) = [N-]=[N+]=NCCCC[C@H](N)C(=O)O; Pra = C#CC[C@H](N)C(=O)O
measured_endpoint: MIC

input: Entry under review: CC[C@H](C)[C@H](NC(=O)[C@H](CCCNC(=N)N)NC(=O)CNC(=O)[C@@H](CC(C)C)NC(=O)[C@@H]1CCC(=O)NCCCC[C@H](NC(=O)[C@@H]2CCCN2C(=O)[C@@H](NC(=O)[C@@H](N)Cc2ccccc2)C(C)C)C(=O)N[C@@H](Cc2ccccc2)C(=O)N[C@@H](CO)C(=O)N[C@@H](CCCCN)C(=O)N1)C(=O)N[C@@H](CC(C)C)C(N)=O (H-FVPKFSKE[dL]GRIL-NH2; lactam 4-8) . Reported MIC?
output: > 100 µM

input: Entry CC[C@H](C)[C@H](NC(=O)[C@H](CCCNC(=N)N)NC(=O)CNC(=O)[C@@H](CC(C)C)NC(=O)[C@@H]1CCCCn2cc(nn2)C[C@H](NC(=O)[C@@H]2CCCN2C(=O)[C@@H](NC(=O)[C@@H](N)Cc2ccccc2)C(C)C)C(=O)N[C@@H](Cc2ccccc2)C(=O)N[C@@H](CO)C(=O)N[C@@H](CCCCN)C(=O)N1)C(=O)N[C@@H](CC(C)C)C(N)=O (H-FVP[Pra]FSK[Lys(N3)][dL]GRIL-NH2; triazole 4-8) : reported MIC = ?
output: > 100 µM

---

test system: HaCaT; test: Cytotoxicity against human HaCaT cells assessed as reduction in cell viability at 50 uM measured after 24 hrs by MTT assay; type: toxicity, cell-based
Bridge positions count the residues as written; N and C are the ends. Square brackets hold non-standard residues; d marks the D form. Peptide text beside a SMILES is read from it.
Can you tell me Activity for the items I'm about to list?

input: Report Activity for `CC[C@H](C)[C@H](NC(=O)[C@H](CCCNC(=N)N)NC(=O)[C@@H]1CCCCn2cc(nn2)C[C@H](NC(=O)[C@H](Cc2ccccc2)NC(=O)[C@H](Cc2c[nH]c3ccccc23)NC(=O)[C@@H]2CCCN2C(=O)[C@@H](NC(=O)[C@@H](N)Cc2ccccc2)C(C)C)C(=O)N[C@@H](CCCCN)C(=O)N[C@@H](Cc2ccccc2)C(=O)N[C@@H](CC(C)C)C(=O)N1)C(=O)N[C@@H](CC(C)C)C(N)=O` please.
output: < 20%

input: What value of measured Activity is listed for CC[C@H](C)[C@H](NC(=O)[C@H](CCCNC(=N)N)NC(=O)[C@@H]1CCCCNC(=O)CC[C@H](NC(=O)[C@H](Cc2ccccc2)NC(=O)[C@H](Cc2c[nH]c3ccccc23)NC(=O)[C@@H]2CCCN2C(=O)[C@@H](NC(=O)[C@@H](N)Cc2ccccc2)C(C)C)C(=O)N[C@@H](CCCCN)C(=O)N[C@@H](Cc2ccccc2)C(=O)N[C@H](CC(C)C)C(=O)N1)C(=O)N[C@@H](CC(C)C)C(N)=O (H-FVPWFEKF[dL]KRIL-NH2; lactam 6-10) ?
output: < 20%

---

system: Escherichia coli; test: Antimicrobial activity against Escherichia coli ATCC 25922 assessed as reduction in bacterial growth incubated for 16 to 18 hrs by microdilution susceptibility test; assay type: functional; settings: time 16-18 hrs
Bridge positions count the residues as written; N and C are the ends. Square brackets hold non-standard residues; d marks the D form. Peptide text beside a SMILES is read from it.
measured_endpoint: MIC

input: Look up MIC for this compound: `CC[C@H](C)[C@H](NC(=O)[C@H](CCCNC(=N)N)NC(=O)[C@@H]1CCCCn2cc(nn2)C[C@H](NC(=O)[C@H](Cc2ccccc2)NC(=O)[C@H](Cc2c[nH]c3ccccc23)NC(=O)[C@@H]2CCCN2C(=O)[C@@H](NC(=O)[C@@H](N)Cc2ccccc2)C(C)C)C(=O)N[C@@H](CCCCN)C(=O)N[C@@H](Cc2ccccc2)C(=O)N[C@@H](CC(C)C)C(=O)N1)C(=O)N[C@@H](CC(C)C)C(N)=O`
output: > 100 µM

input: Reported MIC for CCC(C)[C@H](NC(=O)[C@H](CCCNC(=N)N)NC(=O)[C@]1(C)CCC/C=C/CCC[C@](C)(NC(=O)[C@H](Cc2ccccc2)NC(=O)[C@H](Cc2c[nH]c3ccccc23)NC(=O)[C@@H]2CCCN2C(=O)[C@@H](NC(=O)[C@@H](N)Cc2ccccc2)C(C)C)C(=O)N[C@@H](CCCCN)C(=O)N[C@@H](Cc2ccccc2)C(=O)N[C@H](CC(C)C)C(=O)N1)C(=O)N[C@@H](CC(C)C)C(N)=O (stereo partly drawn) : what is it?
output: > 100 µM

input: Tell me the measured MIC of CC[C@H](C)[C@@H]1NC(=O)[C@H](CCCNC(=N)N)NC(=O)CNC(=O)[C@@H](CC(C)C)NC(=O)[C@H](Cc2ccccc2)NC(=O)[C@H](CCCCN)NC(=O)[C@@H](NC(=O)[C@H](Cc2ccccc2)NC(=O)[C@H](Cc2c[nH]c3ccccc23)NC(=O)[C@@H]2CCCN2C(=O)[C@@H](NC(=O)[C@@H](N)Cc2ccccc2)C(C)C)CCCCNC(=O)CC[C@@H](C(N)=O)NC1=O (H-FVPWFKKF[dL]GRIE-NH2; lactam 6-13) , please.
output: > 100 µM

---

Provide the reported MIC of each item.
test system: Escherichia coli; assay: Antimicrobial activity against Escherichia coli ATCC 25922 assessed as reduction in bacterial growth incubated for 16 to 18 hrs by microdilution susceptibility test; format: functional; conditions: time 16-18 hrs
Bridge positions count the residues as written; N and C are the ends. Square brackets hold non-standard residues; d marks the D form. Triazole bridges read from a SMILES are 1,4-linked. Peptide text beside a SMILES is read from it. Lys(N3) = [N-]=[N+]=NCCCC[C@H](N)C(=O)O; Pra = C#CC[C@H](N)C(=O)O

input: Entry CC[C@H](C)[C@@H]1NC(=O)[C@H](CCCNC(=N)N)NC(=O)CNC(=O)[C@@H](CC(C)C)NC(=O)[C@H](Cc2ccccc2)NC(=O)[C@H](CCCCN)NC(=O)[C@@H](NC(=O)[C@H](Cc2ccccc2)NC(=O)[C@H](Cc2c[nH]c3ccccc23)NC(=O)[C@@H]2CCCN2C(=O)[C@@H](NC(=O)[C@@H](N)Cc2ccccc2)C(C)C)Cc2cn(nn2)CCCC[C@@H](C(N)=O)NC1=O (H-FVPWF[Pra]KF[dL]GRI[Lys(N3)]-NH2; triazole 6-13) : reported MIC = ?
output: > 100 µM

input: Please give the measured MIC for this compound: `CC[C@H](C)[C@@H]1NC(=O)[C@H](CCCNC(=N)N)NC(=O)CNC(=O)[C@H](NC(=O)[C@H](Cc2ccccc2)NC(=O)[C@H](CCCCN)NC(=O)[C@H](CO)NC(=O)[C@H](Cc2ccccc2)NC(=O)[C@H](Cc2c[nH]c3ccccc23)NC(=O)[C@@H]2CCCN2C(=O)[C@@H](NC(=O)[C@@H](N)Cc2ccccc2)C(C)C)CCCCNC(=O)CC[C@@H](C(N)=O)NC1=O`
output: > 100 µM

input: Consider the compound shown here: CC(C)C[C@H](NC(=O)[C@@H]1CCC(=O)NCCCC[C@H](NC(=O)[C@H](CCCCN)NC(=O)[C@H](CO)NC(=O)[C@H](Cc2ccccc2)NC(=O)[C@H](Cc2c[nH]c3ccccc23)NC(=O)[C@@H]2CCCN2C(=O)[C@@H](NC(=O)[C@@H](N)Cc2ccccc2)C(C)C)C(=O)N[C@H](CC(C)C)C(=O)NCC(=O)N[C@@H](CCCNC(=N)N)C(=O)N1)C(N)=O (H-FVPWFSKK[dL]GREL-NH2; lactam 8-12) What is its recorded MIC?
output: > 100 µM
